The origin of these recorded values is patent US6365616B1.

# System: swine class I promoter (PD1)
# METHOD_DESCRIPTION: Transient transfection CAT assay, class I promoter chimeras in FRTL-5 cells
# Assay type: cell-based
# RUN_PARAMETERS: Sus scrofa, FRTL-5; 25 μM; 6H medium, 36 hours; read-out: % inhibition of basal p(−203)CAT class I promoter activity
Kindly state inhibition at 25 µM for each of the entries shown.
Answer with the figure and its unit, nothing else.

For orientation, consider the following solved cases.
Cn1ccnc1S    0%
Cc1cnc(S)n1C    0%
Cc1ncc([N+](=O)[O-])n1CCO    0%

// each molecule listed below needs its inhibition at 25 µM
1. CSc1nccn1C
2. Cn1c(-c2ccccc2)cnc1S

1. 0%
2. 45%

* * *

# Tested on: HLA-DRα class II promoter
# METHOD_DESCRIPTION: Luciferase assay, FRTL-5 cells stably transfected with HLA-DRα class II promoter-luciferase chimeras
# Format: cell-based
# RUN_PARAMETERS: FRTL-5; 1 mM; 100 U/ml γ-interferon; 6H medium, 40 hours; read-out: % inhibition of IFN-increased p(−137)LUC class II promoter activity
OBSERVED_PROPERTY: inhibition at 1000 µM (%)
Answers are plain numbers, in %.

Cn1ccnc1S [Compound 1, 1-Methylimidazole-2-thiol]    37
Cc1ncc([N+](=O)[O-])n1CCO [Compound 2, 2-Methyl-5-nitro-1-imidazole ethanol]    65
CSc1nccn1C [Compound 7, S-Methylmethimazole]    68

Moving on to the next compound.
Item under review: Cn1c(-c2ccccc2)cnc1S [Compound 10, 5-Phenylmethimazole] . Reported inhibition at 1000 µM?
92

* * *

Kindly state inhibition at 1000 µM for each of the entries shown.
# Test system: swine class I promoter (PD1)
# METHOD_DESCRIPTION: Transient transfection CAT assay, class I promoter chimeras in FRTL-5 cells
# Type: cell-based
# RUN_PARAMETERS: Sus scrofa, FRTL-5; 1.0 mM; 6H medium, 36 hours; read-out: % inhibition of basal p(−203)CAT class I promoter activity
Numbers only, in %.

For orientation, consider the following solved cases.
Cn1c(-c2ccccc2)cnc1S [Compound 10, 5-Phenylmethimazole]    92
Cc1cnc(S)n1C [Compound 9, 5-Methylmethimazole]    14
Cc1ncc([N+](=O)[O-])n1CCO [Compound 2, 2-Methyl-5-nitro-1-imidazole ethanol]    37
CSc1nccn1C [Compound 7, S-Methylmethimazole]    51

Moving on to the next molecule.
Item under review: Cn1ccnc1S [Compound 1, 1-Methylimidazole-2-thiol] . Reported inhibition at 1000 µM?
32
